- TARGET_OR_SYSTEM: CD22 (Homo sapiens, UniProt P20273)
- Construct: The soluble CD22 protein was expressed in the CHO-Lec1 cell line; made in house; host or cells: CHO-Lec1
- Sequence (P20273 20-687 limits assumed): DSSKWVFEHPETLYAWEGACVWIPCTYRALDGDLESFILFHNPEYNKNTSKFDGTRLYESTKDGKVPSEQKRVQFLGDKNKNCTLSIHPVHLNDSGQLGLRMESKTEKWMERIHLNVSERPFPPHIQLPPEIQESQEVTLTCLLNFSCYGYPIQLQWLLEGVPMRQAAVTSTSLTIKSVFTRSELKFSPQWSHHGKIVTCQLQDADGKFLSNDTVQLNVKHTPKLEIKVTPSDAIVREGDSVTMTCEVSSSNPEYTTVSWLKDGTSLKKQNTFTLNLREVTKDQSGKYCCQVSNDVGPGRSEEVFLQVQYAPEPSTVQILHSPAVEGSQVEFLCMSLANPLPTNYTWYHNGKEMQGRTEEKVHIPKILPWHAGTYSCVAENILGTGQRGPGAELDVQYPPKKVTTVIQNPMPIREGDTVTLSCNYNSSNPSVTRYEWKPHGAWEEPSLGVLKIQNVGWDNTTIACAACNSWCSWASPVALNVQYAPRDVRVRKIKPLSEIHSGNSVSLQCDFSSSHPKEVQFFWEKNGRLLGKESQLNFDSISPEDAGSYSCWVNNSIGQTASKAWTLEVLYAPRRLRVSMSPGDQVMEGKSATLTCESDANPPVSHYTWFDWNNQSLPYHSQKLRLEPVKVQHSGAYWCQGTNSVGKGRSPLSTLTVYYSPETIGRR
- PROTOCOL_SUMMARY: ELISA-based inhibition assay: inhibition of binding of soluble CD22 to immobilized IgM
- MEASUREMENT_CONDITIONS: Table III; relative to reference compound 17 co-tested in the same assay (rIP = 1)
READOUT_LABEL: rIP

// worked examples, rIP included
- CCC(=O)N[C@H]1C[C@](OCCCCCC(=O)[O-])(C(=O)[O-])O[C@@H]([C@H](O)[C@H](O)CNC(=O)c2ccc(-c3ccccc3)cc2)[C@@H]1NC(C)=O.[Na+].[Na+]: 1
- CC(=O)N[C@H]1[C@H]([C@H](O)[C@H](O)CNC(=O)c2ccc(-c3ccccc3)cc2)O[C@@](OCCCCCC(=O)[O-])(C(=O)[O-])C[C@@H]1NC(=O)c1ccc(F)cc1.[Na+].[Na+]: 2.1
- CC(=O)N[C@H]1[C@H]([C@H](O)[C@H](O)CNC(=O)c2ccc(-c3ccccc3)cc2)O[C@@](OCCCCCC(=O)[O-])(C(=O)[O-])C[C@@H]1NC(=O)c1ccc(O)cc1.[Na+].[Na+]: 1.7
- CC(=O)N[C@H]1[C@H]([C@H](O)[C@H](O)CNC(=O)c2ccc(-c3ccccc3)cc2)O[C@@](OCCCCCC(=O)[O-])(C(=O)[O-])C[C@@H]1NC(=O)c1ccccc1.[Na+].[Na+]: 1.1

Read the next record carefully.
(Q) Please report the recorded rIP for CC(=O)N[C@H]1[C@H]([C@H](O)[C@H](O)CNC(=O)c2ccc(-c3ccccc3)cc2)O[C@@](OCCCCCC(=O)[O-])(C(=O)[O-])C[C@@H]1NC(=O)c1c(F)cccc1F.[Na+].[Na+] .
(A) 0.75
